Data credit: patent US20250188153A1

target: hMPV B1 F (human metapneumovirus); assay: ELISA on coated recombinant protein, OD 405 nm
Exercise: for every item that follows, state its recorded EC50.
One number for each entry, in µg/mL.

These solved cases illustrate the format of a correct answer.
MPV456 (antibody, V domains shown) VH: QVQLQESGPGVVKPSGTLSLTCGVSGGSISSSYWWSWVRQPPGKGLEWIGEIYHSGSTNYNPSLKRRVTISVDKSKNQFSLKVTSVTAADTAVYYCARGPIQYYDILTEERVGYCDYWGQGTLVTVSS VL: TLSASVGDRVTITCRASQSISSWLAWFQQKPGKAPKLLIYKTSSLESGVPSRFSGSGSGTEFTLTISSLQPDDFATYYCQEYNSYSRTFGQGTKVEIK: 0.49
MPV478 (antibody, V domains shown) VH: EVQLVQSGAEVKKPGASVKVSCNASGYTFTGYYIHWVRQAPGQGLEWMGWINPRSGGTNYAQKFQGRVTLTRDTSITTAYMDVTRLRPDDTAVYYCATTREGIVLMPRGRGDDALDTWGQGTTVIVSS VL: DIVMTQSPVSLTVSLGERATINCKSSQSVLSTSNNENYLAWYQQKPGQPPNLLIYWASTRESGVPDRFSGSGSGTDFTLTISSLQAEDVAVYYCQQYFATPITFGPGTKVDVK: 0.022

# per-item lookup of EC50; items listed below
1. MPV454 (antibody, V domains shown) VH: EVQLVESGGGLVKPGGSLRLSCSTSGFVFSSYAMHWVRQAPGKGLEHVSAISSTGDNTHYADSVKGRFTISRDNSRGRLYLQMTSVRPEDAALYYCVKDLYSGRFYYFLDDWGQGTRIIVSS VL: DIQVTQSPSSLSASVGDRVTISCRASQNISNYLNWFQQRPGKAPKLLIYVASTLQSGAPSRFSGSGSGTDFTLTITDLQPEDFATYYCQQSYNTPPITFGQGTRLEIK
2. MPV487 (antibody, V domains shown) VH: EVQLLESGGGLVQPGRSLRLSCTASGFTFDDYAMHWVRQLPGKGLEWVSGISWNSDNIGYADSVKGRFTISRDNGKNSLYLQMNSLRAEDTAFYYCAKDVRIDYDLLIGHIDYWGPGTLVTVSS VL: TQSPVTLSLSPGERATLSCRASQSFGGYCAWYQQKPGQSPRLLIYDASNRATGVPARFSGSGSGTDFTLTISSLEPEDSAVYFCQQRGNWPIFGQGTRLEI

1: 0.12; 2: 0.065
